B1: Hairpin Ribozyme (parent)
chain: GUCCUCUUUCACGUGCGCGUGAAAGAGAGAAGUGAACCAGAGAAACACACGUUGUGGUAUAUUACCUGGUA

Variants of: B1
Assay: self-cleavage, relative activity (ratio to wild type); higher = more cleavage; co-transcriptional
Kind request: treat 0.2 as inclusive, so self-cleavage at 0.2 or higher is TRUE, anything lower is FALSE.

- mutant.designation: "G21C U53A"
  discrete.label: "TRUE"
- mutant.designation: "C4G A35U"
  discrete.label: "FALSE"
- mutant.designation: "C37U U58C"
  discrete.label: "TRUE"
- mutant.designation: "C38G G40U"
  discrete.label: "FALSE"
- mutant.designation: "C38G U63G"
  discrete.label: "TRUE"
- mutant.designation: "U5G G69U"
  discrete.label: "TRUE"
